Molecular target: huFXII-his (human) (UniProt P00748)
Sequence (P00748 20-615, form in doubt): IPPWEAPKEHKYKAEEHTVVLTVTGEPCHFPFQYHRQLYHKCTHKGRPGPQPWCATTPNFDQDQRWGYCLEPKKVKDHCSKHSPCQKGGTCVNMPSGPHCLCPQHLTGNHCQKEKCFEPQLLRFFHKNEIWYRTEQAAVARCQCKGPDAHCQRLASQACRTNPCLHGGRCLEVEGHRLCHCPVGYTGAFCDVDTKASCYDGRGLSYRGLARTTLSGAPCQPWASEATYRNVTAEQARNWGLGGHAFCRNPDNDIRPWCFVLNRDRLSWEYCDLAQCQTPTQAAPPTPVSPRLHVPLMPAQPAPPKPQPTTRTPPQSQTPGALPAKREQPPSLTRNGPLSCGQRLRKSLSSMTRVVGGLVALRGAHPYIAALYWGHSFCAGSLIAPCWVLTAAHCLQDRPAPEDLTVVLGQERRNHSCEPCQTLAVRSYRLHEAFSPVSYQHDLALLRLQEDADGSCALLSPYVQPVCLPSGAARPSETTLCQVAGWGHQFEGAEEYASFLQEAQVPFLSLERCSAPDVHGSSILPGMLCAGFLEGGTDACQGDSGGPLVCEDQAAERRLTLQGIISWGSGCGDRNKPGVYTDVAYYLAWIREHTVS
Assay: cell-based or functional assay
Measured IC50 of inhibition of cleavage of chemical substrate S2302 by FXIIa (OD405) accompanies every entry in the list below.
Number only, in µg/mL; omit the unit.

{"binder": "FX-Y17-Y4 (antibody, V domains shown) VH: EVQLLESGGGLVQPGGSLRLSCAGSGFSFGSQTMSWVRQAPGKGLEWVSSSHVISGRTYYADSVKGRFTISRDNSKNTLYLQMNSLRAEDTAVYYCTKSHAFDVWGQGTMVTVSS VL: EIVLTQSPATLSVSPGERATLSCRASQSVYYNLAWYQQKPGQAPRLLIYGASTRATGIPARFSGSGSGTEFTLTISSLQSEDFAVYYCQQYHKWPLSFGGGTKVEIK", "recorded.measurement": 0.0116}
{"binder": "FX-Y17-Y23 (antibody, V domains shown) VH: EVQLLESGGGLVQPGGSLRLSCAGSGFSFGSQTMSWVRQAPGKGLEWVSSISVISGRSYYADSVKGRFTISRDNSKNTLYLQMNSLRAEDTAVYYCTRSHAFDVWGQGTMVTVSS VL: EIVLTQSPATLSVSPGERATLSCRASQSVWSNLAWYQQKPGQAPRLLIYGASTRATGIPARFSGSGSGTEFTLTISSLQSEDFAVYYCQQYHKWPLSFGGGTKVEIK", "recorded.measurement": 0.0129}
{"binder": "FX-Y17-Y21 (antibody, V domains shown) VH: EVQLLESGGGLVQPGGSLRLSCAGSGFSFGSQTMSWVRQAPGKGLEWVSSISHISGRTYYADSVKGRFTISRDNSKNTLYLQMNSLRAEDTAVYYCAKSHAFDVWGQGTMVTVSS VL: EIVLTQSPATLSVSPGERATLSCRASQSVYSALAWYQQKPGQAPRLLIYGASTRATGIPARFSGSGSGTEFTLTISSLQSEDFAVYYCQQNNKWPLSFGGGTKVEIK", "recorded.measurement": 0.0132}
{"binder": "FX-Y17-Y37 (antibody, V domains shown) VH: EVQLLESGGGLVQPGGSLRLSCAGSGFSFGSQTMSWVRQAPGKGLEWVSSISVISGRSYYADSVKGRFTISRDNSKNTLYLQMNSLRAEDTAVYYCTKSHAFDVWGQGTMVTVSS VL: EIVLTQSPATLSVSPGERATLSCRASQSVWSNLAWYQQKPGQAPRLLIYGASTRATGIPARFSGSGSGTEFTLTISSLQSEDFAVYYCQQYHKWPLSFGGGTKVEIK", "recorded.measurement": 0.0143}

// below: IC50 of inhibition of cleavage of chemical substrate S2302 by FXIIa (OD405) requested for another binder
Record request: IC50 of inhibition of cleavage of chemical substrate S2302 by FXIIa (OD405) value, item FX-Y17-Y1 (antibody, V domains shown) VH: EVQLLESGGGLVQPGGSLRLSCAGSGFSFGSQTMSWVRQAPGKGLEWVSSISVISRRTYYADSVKGRFTISRDNSKNTLYLQMNSLRAEDTAVYYCTKSHAFDVWGQGTMVTVSS VL: EIVLTQSPATLSVSPGERATLSCRASQSVYSALAWYQQKPGQAPRLLIYGASTRATGIPARFSGSGSGTEFTLTISSLQSEDFAVYYCQQYHKWPLSFGGGTKVEIK
0.0237
